# experimental.target: T1, human CCR8 (human, UniProt P51685 1-355)
# T1 construct: whole, on cells; also called hCCR8
# T1 sequence (P51685 whole entry): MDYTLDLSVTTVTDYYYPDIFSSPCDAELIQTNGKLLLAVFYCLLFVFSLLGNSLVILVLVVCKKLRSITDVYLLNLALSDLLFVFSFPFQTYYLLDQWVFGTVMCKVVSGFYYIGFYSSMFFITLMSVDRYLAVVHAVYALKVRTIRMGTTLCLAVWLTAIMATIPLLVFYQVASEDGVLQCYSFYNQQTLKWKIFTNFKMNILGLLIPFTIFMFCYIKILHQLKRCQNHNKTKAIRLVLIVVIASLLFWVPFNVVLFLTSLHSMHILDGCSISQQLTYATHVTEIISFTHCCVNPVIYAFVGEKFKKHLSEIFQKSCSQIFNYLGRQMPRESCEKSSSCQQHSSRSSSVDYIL
# protocol.description: FACS on CHO-K1-human CCR8 cells
Each record's class is read off its Max MFI using these ranges: class 0: < 700000 MFI; class 1: ≥ 700000 MFI and < 800000 MFI; class 2: ≥ 800000 MFI

Examples from the recorded data:
>>> answer_label("Hu149-20 (antibody, human IgG1, V domains shown, human IgG1) VH: EVQLVESGGGLVQPGGSLKLSCAASGFTFNTYAMNWVRQASGKGLEWVGRIRSKSNFYATAYAASVKGRFTISRDDSKNTAYLQMNSLKTEDTAVYYCTRGKEYGSSYAMDYWGQGTLVTVSS VL: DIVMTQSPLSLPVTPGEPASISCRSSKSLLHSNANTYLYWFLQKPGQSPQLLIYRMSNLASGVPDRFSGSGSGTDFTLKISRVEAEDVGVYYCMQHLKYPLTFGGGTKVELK")
"class 1"
>>> answer_label("Hu149-16 (antibody, human IgG1, V domains shown, human IgG1) VH: EVQLVESGGGLVQPGGSLKLSCAASGFTFNTYAMNWVRQASGKGLEWVGRIRSKSNFYATAYAASVKGRFTISRDDSKNTAYLQMNSLKTEDTAVYYCTRGRDYGSSYAMDYWGQGTLVTVSS VL: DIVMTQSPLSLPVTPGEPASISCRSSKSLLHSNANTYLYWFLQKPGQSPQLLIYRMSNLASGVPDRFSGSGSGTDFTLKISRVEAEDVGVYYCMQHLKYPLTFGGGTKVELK")
"class 0"
>>> answer_label("Hu149-19 (antibody, human IgG1, V domains shown, human IgG1) VH: EVQLVESGGGLVQPGGSLKLSCAASGFTFNTYAMNWVRQASGKGLEWVGRIRSKSNFYATAYAASVKGRFTISRDDSKNTAYLQMNSLKTEDTAVYYCTRGREYGSSYAMDYWGQGTLVTVSS VL: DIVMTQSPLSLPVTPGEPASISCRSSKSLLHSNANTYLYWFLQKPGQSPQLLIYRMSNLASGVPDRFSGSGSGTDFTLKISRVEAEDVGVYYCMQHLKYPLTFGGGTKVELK")
"class 0"
>>> answer_label("Hu149-13 (antibody, human IgG1, V domains shown, human IgG1) VH: EVQLVESGGGLVQPGGSLKLSCAASGFTFNTYAMNWVRQASGKGLEWVGRIRSKSNFYATAYAASVKGRFTISRDDSKNTAYLQMNSLKTEDTAVYYCTRGREYGRSYAMDYWGQGTLVTVSS VL: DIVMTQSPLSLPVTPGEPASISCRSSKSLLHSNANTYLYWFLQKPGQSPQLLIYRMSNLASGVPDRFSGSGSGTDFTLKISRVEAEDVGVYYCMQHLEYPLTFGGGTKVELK")
"class 0"
>>> answer_label("Hu149-9 (antibody, human IgG1, V domains shown, humanized, human IgG1; also called Hu149-9 HuIgG1) VH: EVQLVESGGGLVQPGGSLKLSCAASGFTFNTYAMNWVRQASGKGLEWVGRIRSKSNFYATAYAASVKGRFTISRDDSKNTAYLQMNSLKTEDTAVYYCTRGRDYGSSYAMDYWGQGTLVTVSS VL: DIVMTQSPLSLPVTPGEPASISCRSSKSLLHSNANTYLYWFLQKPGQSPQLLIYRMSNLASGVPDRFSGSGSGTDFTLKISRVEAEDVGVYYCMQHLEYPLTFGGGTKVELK")
"class 0"

Here's the next entry for you.
Exam item: Bin? Hu149-24 (antibody, human IgG1, V domains shown, human IgG1) VH: EVQLVESGGGLVQPGGSLKLSCAASGFTFNTYAMNWVRQAPGKGLEWVGRIRSKSNFYATAYAASVKGRFTISRDDSKNTAYLQMNSLKTEDTAVYYCTRGKEYGSSYAMDYWGQGTLVTVSS VL: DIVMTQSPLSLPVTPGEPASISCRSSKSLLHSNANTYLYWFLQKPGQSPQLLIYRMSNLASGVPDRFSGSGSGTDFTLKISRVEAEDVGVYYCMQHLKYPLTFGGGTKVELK
Marked response: class 2
